# assayedTarget: human ERα LBD (Homo sapiens)
# Sequence (P03372 311-547 limits assumed): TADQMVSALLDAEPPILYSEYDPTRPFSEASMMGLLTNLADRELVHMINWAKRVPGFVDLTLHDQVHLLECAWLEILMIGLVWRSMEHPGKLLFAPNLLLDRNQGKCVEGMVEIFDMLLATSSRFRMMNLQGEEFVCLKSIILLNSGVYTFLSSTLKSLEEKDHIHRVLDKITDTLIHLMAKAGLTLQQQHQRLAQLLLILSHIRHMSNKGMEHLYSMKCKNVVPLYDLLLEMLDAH
# testName: Competitive fluorescence polarization binding assay, ERα
Reported pKi is given for each of the following molecules.
Lab note: report pKi as minus log10 of the concentration in molar units, number only.

Below, each entry is followed by its recorded pKi result.
molecule	pKi
CC(C)=CC(=O)Nc1ccc(C2=C(c3ccc(O)cc3)C3CC(S(=O)(=O)Oc4ccc(O)cc4)C2O3)cc1 (stereo not shown) [Compound 28f]	9.46
CC(C)=CC(=O)Nc1ccc(C2=C(c3ccc(O)cc3)C3OC2CC3S(=O)(=O)N(CC(F)(F)F)c2ccc(O)cc2)cc1 (stereo not shown) [Compound 29c]	10.05
CC(C)=CC(=O)Nc1ccc(C2=C(c3ccc(O)cc3)C3OC2CC3S(=O)(=O)N(CC(F)(F)F)c2cccc(O)c2)cc1 (stereo not shown) [Compound 29h]	9.46
C=CC(=O)Nc1ccc(C2=C(c3ccc(O)cc3)C3OC2CC3S(=O)(=O)Oc2ccccc2)cc1 (stereo not shown) [Compound 28a]	9.82
C/C=C/C(=O)Nc1ccc(C2=C(c3ccc(O)cc3)C3OC2CC3S(=O)(=O)N(CC(F)(F)F)c2ccc(O)cc2)cc1 (stereo not shown) [Compound 29b]	9.85

Note to self: pKi of C/C=C/C(=O)Nc1ccc(C2=C(c3ccc(O)cc3)C3OC2CC3S(=O)(=O)Oc2ccccc2)cc1 (stereo not shown) [Compound 28b] with human ERα LBD (Homo sapiens) was 9.70

Note to self: pKi of O=C(CBr)Nc1ccc(C2=C(c3ccc(O)cc3)C3OC2CC3S(=O)(=O)Oc2ccccc2)cc1 (stereo not shown) [Compound 28e] with human ERα LBD (Homo sapiens) was 9.54

Note to self: pKi of CC(C)=CC(=O)Nc1ccc(C2=C(c3ccc(O)cc3)C3CC(S(=O)(=O)N(CC(F)(F)F)c4ccc(C)cc4)C2O3)cc1 (stereo not shown) [Compound 29d] with human ERα LBD (Homo sapiens) was 9.37

Note to self: pKi of CC(C)=CC(=O)Nc1ccc(C2=C(c3ccc(O)cc3)C3CC(S(=O)(=O)N(CC(F)(F)F)c4ccccc4)C2O3)cc1 (stereo not shown) [Compound 29e] with human ERα LBD (Homo sapiens) was 9.54

Note to self: pKi of CCN(c1ccc(OC)cc1)S(=O)(=O)C1CC2OC1C(c1ccc(O)cc1)=C2c1ccc(NC(=O)C=C(C)C)cc1 (stereo not shown) [Compound 29j] with human ERα LBD (Homo sapiens) was 9.20

Note to self: pKi of CC(C)=CC(=O)Nc1ccc(OS(=O)(=O)C2CC3OC2C(c2ccc(O)cc2)=C3c2ccc(O)cc2)cc1 (stereo not shown) [Compound 26c] with human ERα LBD (Homo sapiens) was 9.08

Note to self: pKi of CCN(c1ccc(O)cc1)S(=O)(=O)C1CC2OC1C(c1ccc(O)cc1)=C2c1ccc(NC(=O)C=C(C)C)cc1 (stereo not shown) [Compound 29i] with human ERα LBD (Homo sapiens) was 10.05

Note to self: pKi of CC(C)=CC(=O)Nc1ccc(C2=C(c3ccc(O)cc3)C3OC2CC3S(=O)(=O)Oc2ccccc2)cc1 (stereo not shown) [Compound 28c] with human ERα LBD (Homo sapiens) was 9.92
